Tested on: mc^26230_R1
Type: cell-based, Mycobacterium tuberculosis
observation-type: fold increase of MIC in the KatG mutated strains versus parental strain (fold)
Note: unit fold is implicit; provide only the numeric part.

Specify measured fold increase of MIC in the KatG mutated strains versus parental strain for O=C1N=C(NNC(=O)c2ccncc2)S/C1=C\c1ccccc1F .
4

Specify measured fold increase of MIC in the KatG mutated strains versus parental strain for O=C1N=C(NNC(=O)c2ccncc2)S/C1=C\c1ccccc1Cl .
4

Specify measured fold increase of MIC in the KatG mutated strains versus parental strain for O=C1N=C(NNC(=O)c2ccncc2)S/C1=C\c1ccc(Cl)cc1 .
8

Specify measured fold increase of MIC in the KatG mutated strains versus parental strain for Cc1ccccc1/C=C1\SC(NNC(=O)c2ccncc2)=NC1=O .
32

Specify measured fold increase of MIC in the KatG mutated strains versus parental strain for O=C1N=C(NNC(=O)c2ccncc2)S/C1=C\c1ccc(F)cc1 .
8

Values were extracted from paper PMC12400508.
